Experimental System: Amine oxidase [flavin-containing] A (Rattus norvegicus, UniProt P21396)
Sequence (P21396 whole entry): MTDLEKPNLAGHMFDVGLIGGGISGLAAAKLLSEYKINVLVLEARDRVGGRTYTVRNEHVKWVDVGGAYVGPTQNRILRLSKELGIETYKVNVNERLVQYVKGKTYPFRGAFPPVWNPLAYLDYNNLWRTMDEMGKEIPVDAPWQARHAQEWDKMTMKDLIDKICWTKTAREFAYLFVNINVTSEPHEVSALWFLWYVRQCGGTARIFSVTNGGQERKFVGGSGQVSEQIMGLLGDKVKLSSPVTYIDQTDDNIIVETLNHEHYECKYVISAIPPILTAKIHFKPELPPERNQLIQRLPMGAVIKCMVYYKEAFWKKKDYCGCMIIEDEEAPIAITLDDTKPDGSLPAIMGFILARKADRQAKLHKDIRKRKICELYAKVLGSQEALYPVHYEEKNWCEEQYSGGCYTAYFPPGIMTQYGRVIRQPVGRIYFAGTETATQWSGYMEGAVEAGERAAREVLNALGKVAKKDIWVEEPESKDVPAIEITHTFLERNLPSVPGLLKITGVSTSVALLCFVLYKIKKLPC
Literature roundup of Amine oxidase [flavin-containing] A (Rattus norvegicus, UniProt P21396) data, read-out log10 IC50.
Reminder: these figures are log10 of reported IC50, in µM before transformation.

Q: Need log10 IC50, item `CNC(=O)/C=C1/COc2cc(OS(=O)(=O)c3ccc([N+](=O)[O-])cc3)ccc21`
Ans: -1.43

Q: // returns reported log10 IC50 for input `O=C1c2ccccc2-c2nnc(-c3ccccc3[N+](=O)[O-])cc21`
Ans: 2.00

Q: Given the compound Oc1ccccc1C1=NN(C(=S)Nc2ccccc2)C(c2cccs2)C1 (stereo unspecified) , what is its reported log10 IC50?
Ans: 0.75

Q: Which log10 IC50 value belongs to `CNCc1cc(=O)oc2cc(OS(=O)(=O)c3cccc(Cl)c3)ccc12` ?
Ans: 0.72

Q: Given the compound `O=c1[nH]c(=O)c2cc(-c3ccccc3)nnc2[nH]1` , what is its reported log10 IC50?
Ans: 1.21

Q: Field request: log10 IC50 | item: `O=C(NCCN1CCOCC1)c1cccnc1`
Ans: 1.83

Q: Which log10 IC50 value is on record for `CC(=O)Oc1ccc(/C=C/C=C/C(=O)N2CCCCC2)cc1OC(C)=O` ?
Ans: 0.11

Q: Fill blank: measured log10 IC50 of the compound `O=C1c2ccccc2-c2nnc(-c3ccccc3C(F)(F)F)cc21` is ____.
Ans: 1.00

Q: Consider the compound shown here: `NC(=O)Cc1cc(=O)oc2cc(OCc3ccncc3)ccc12` What is its recorded log10 IC50?
Ans: 1.42

Q: Name the recorded log10 IC50 for `COc1ccccc1-c1cc2c(nn1)-c1ccccc1C2=O` .
Ans: 1.70

###

Reported IC50 against Amine oxidase [flavin-containing] A (Rattus norvegicus, UniProt P21396), gathered from multiple publications, appears below.
The figure you give is taken to be in µM; do not add the unit.

Q: What measured IC50 is associated with `N#CCCn1nnc(-c2ccccc2)n1` on Amine oxidase [flavin-containing] A (Rattus norvegicus, UniProt P21396)?
Ans: 54

Q: Given the entry `O=C1c2ccccc2-c2nncc(Cc3ccccc3)c21` , what IC50 was observed with Amine oxidase [flavin-containing] A (Rattus norvegicus, UniProt P21396)?
Ans: 50

Q: Give the reported IC50 for `O=C(NCCCN1CCOCC1)c1cnc(Cl)c(Cl)c1` (system: Amine oxidase [flavin-containing] A (Rattus norvegicus, UniProt P21396)).
Ans: 0.1

Q: // map `C#CCN(C)Cc1ccccc1` to recorded IC50 (system: Amine oxidase [flavin-containing] A (Rattus norvegicus, UniProt P21396))
Ans: 390

Q: Given the entry `O=C(NCCN1CCOCC1)c1cnccc1Cl` , what IC50 was observed with Amine oxidase [flavin-containing] A (Rattus norvegicus, UniProt P21396)?
Ans: 0.75

Q: Request: IC50, test system Amine oxidase [flavin-containing] A (Rattus norvegicus, UniProt P21396), entry `O=C1c2ccccc2-c2cnc(-c3ccccc3)nc21`
Ans: 2.37

Q: Request - read-out IC50 | tested on Amine oxidase [flavin-containing] A (Rattus norvegicus, UniProt P21396) | compound `O=C1c2ccccc2-c2nnc(-c3ccc(C(F)(F)F)cc3)cc21`
Ans: 1

Q: Value wanted: IC50 (Amine oxidase [flavin-containing] A (Rattus norvegicus, UniProt P21396)) of entry `COc1ccc(-c2cc3c(nn2)-c2ccccc2C3=O)cc1OC`
Ans: 1

Q: Look up IC50 with Amine oxidase [flavin-containing] A (Rattus norvegicus, UniProt P21396) for this compound: `CNC(=O)/C=C1/COc2c1ccc(OS(=O)(=O)c1ccc(C#N)cc1)c2C`
Ans: 0.015

Q: API: value(readout=IC50, system=Amine oxidase [flavin-containing] A (Rattus norvegicus, UniProt P21396)) for record `CCOC(=O)CCCCc1ccc2c(c1)OCO2`
Ans: 5.57

Q: Lab request: please report IC50 under test system Amine oxidase [flavin-containing] A (Rattus norvegicus, UniProt P21396) for `CNC(=O)/C=C1/COc2c1ccc(OS(=O)(=O)CCC(F)(F)F)c2C`
Ans: 0.011

Q: For Amine oxidase [flavin-containing] A (Rattus norvegicus, UniProt P21396), provide IC50 of `Cc1cc(=O)oc2cc3oc4c(c3cc12)CCCC4` please.
Ans: 65.2

Q: Please state recorded IC50 (tested on Amine oxidase [flavin-containing] A (Rattus norvegicus, UniProt P21396)) of `NC(=O)[C@H](CO)NCc1ccc(OCc2cccc(F)c2)cc1`
Ans: 100

Q: GET /values?readout=IC50&system=Amine oxidase [flavin-containing] A (Rattus norvegicus, UniProt P21396)&item= `COc1cc(=O)oc2cc(OCc3cccc(Cl)c3)ccc12`
Ans: 11.7

Q: Could you share what IC50 was measured for `O=C(NCCCN1CCOCC1)c1c[nH]c(=O)c(Cl)c1` , tested on Amine oxidase [flavin-containing] A (Rattus norvegicus, UniProt P21396)?
Ans: 12

Q: Request: IC50, test system Amine oxidase [flavin-containing] A (Rattus norvegicus, UniProt P21396), entry `CNCc1cc(=O)oc2cc(OCc3ccccc3)ccc12`
Ans: 15.4

Q: Given the entry `Cc1c(C)c2ccc(OC[C@@H](O)c3ccccc3)cc2oc1=O` , what IC50 was observed with Amine oxidase [flavin-containing] A (Rattus norvegicus, UniProt P21396)?
Ans: 10

Q: Please state recorded IC50 (tested on Amine oxidase [flavin-containing] A (Rattus norvegicus, UniProt P21396)) of `O=C(NCCBr)c1ccc(Cl)cn1`
Ans: 790

Q: Record COc1ccc(NC(=S)N2N=C(c3ccc(O)cc3O)CC2c2ccc(O)c(OC)c2)cc1 (centres undefined) : what is its IC50 with Amine oxidase [flavin-containing] A (Rattus norvegicus, UniProt P21396)?
Ans: 53.4

Q: Item `O=C(c1ccccc1)c1c(-c2ccccc2)nnc2c1C(=O)c1ccccc1-2` with Amine oxidase [flavin-containing] A (Rattus norvegicus, UniProt P21396) - IC50?
Ans: 10

Q: Notebook entry, Amine oxidase [flavin-containing] A (Rattus norvegicus, UniProt P21396) assay: IC50 of Oc1ccccc1C1=NN(C(=S)Nc2ccccc2)C(c2ccco2)C1 (centres undefined) = ?
Ans: 33.4

Q: Record lookup: for Amine oxidase [flavin-containing] A (Rattus norvegicus, UniProt P21396), what IC50 belongs to `Nc1cc(=O)oc2cc(OCc3cccc(Cl)c3)ccc12` ?
Ans: 4.17

Q: Checklist item: IC50 tested on Amine oxidase [flavin-containing] A (Rattus norvegicus, UniProt P21396), entry `O=C(c1ccccc1)c1cnncc1-c1ccc(Cl)cc1` , value?
Ans: 30.8

Q: Given the entry `Cc1c(C)c2ccc(OCc3ccc(F)c(O)c3)cc2oc1=O` , what IC50 was observed with Amine oxidase [flavin-containing] A (Rattus norvegicus, UniProt P21396)?
Ans: 0.115

Q: // map `Cc1ccc(S(=O)(=O)N(C)c2ccc3c(C)c(C)c(=O)oc3c2)cc1` to recorded IC50 (system: Amine oxidase [flavin-containing] A (Rattus norvegicus, UniProt P21396))
Ans: 4.57

Q: Fill in the recorded IC50 for this compound, with Amine oxidase [flavin-containing] A (Rattus norvegicus, UniProt P21396) as test system: `CNC(=O)/C=C1/COc2cc(OS(=O)(=O)CCC(F)(F)F)ccc21`
Ans: 0.0091

Q: Entry `CC(C)NCc1cc(=O)oc2cc(OCc3cccc(F)c3)ccc12` , system Amine oxidase [flavin-containing] A (Rattus norvegicus, UniProt P21396): what IC50 was measured?
Ans: 91

Q: Please tell me: IC50 of `O=C1c2ccccc2-c2nnc(-c3cccc(Br)c3)cc21` , system Amine oxidase [flavin-containing] A (Rattus norvegicus, UniProt P21396)?
Ans: 1

Q: GET /values?readout=IC50&system=Amine oxidase [flavin-containing] A (Rattus norvegicus, UniProt P21396)&item= `c1ccc(-c2ncc3c(n2)Cc2ccccc2-3)cc1`
Ans: 16.7

Q: Recorded IC50 for `COc1c2oc(=O)c(N)cc2cc2c(C)coc12` with Amine oxidase [flavin-containing] A (Rattus norvegicus, UniProt P21396), please?
Ans: 21.7

Q: Provide value of IC50 for this record tested with Amine oxidase [flavin-containing] A (Rattus norvegicus, UniProt P21396): CCNC(=S)N1NC2=C(CCCC2)C1c1ccco1 (centres undefined)
Ans: 110

Q: Any idea what IC50 came out for `Cc1ccc(C(/C=C/c2cccs2)=N\Nc2nc3ccccc3c(=O)n2C)cc1` on Amine oxidase [flavin-containing] A (Rattus norvegicus, UniProt P21396)?
Ans: 33.2

Q: Query IC50 on Amine oxidase [flavin-containing] A (Rattus norvegicus, UniProt P21396) for `OCCn1nnc(-c2ccc(Cl)cc2)n1`
Ans: 66

Q: Find IC50 (Amine oxidase [flavin-containing] A (Rattus norvegicus, UniProt P21396)) for the entry `Cc1c(C)c2ccc(CCc3ccccc3)cc2oc1=O`
Ans: 7.08

Q: Short answer please: IC50, Amine oxidase [flavin-containing] A (Rattus norvegicus, UniProt P21396), entry `NC(=O)Cc1cc(=O)oc2cc(OCc3cccc(O)c3)ccc12`
Ans: 4.27

Q: Form field - read-out: IC50; system: Amine oxidase [flavin-containing] A (Rattus norvegicus, UniProt P21396); submitted item: `N#CCCCCn1nnc(-c2ccc(-c3ccccc3)cc2)n1`
Ans: 26
